Hello, the source for this data is ChEMBL document CHEMBL1139064, in case you need it.

# STUDY_TARGET: Carbonic anhydrase 5B, mitochondrial (Homo sapiens) (UniProt Q9Y2D0)
# Sequence (Q9Y2D0 whole entry): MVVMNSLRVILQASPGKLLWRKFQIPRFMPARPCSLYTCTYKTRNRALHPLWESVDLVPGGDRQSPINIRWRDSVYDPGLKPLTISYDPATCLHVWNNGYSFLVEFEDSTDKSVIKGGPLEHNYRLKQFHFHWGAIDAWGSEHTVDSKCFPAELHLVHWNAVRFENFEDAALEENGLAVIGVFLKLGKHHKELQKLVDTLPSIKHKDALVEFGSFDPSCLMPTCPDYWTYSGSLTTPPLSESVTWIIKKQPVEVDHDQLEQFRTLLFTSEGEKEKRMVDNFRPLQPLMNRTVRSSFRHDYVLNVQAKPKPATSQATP
# MEASUREMENT_PROTOCOL: Activation of human recombinant carbonic anhydrase 5B by stopped-flow CO2 hydrase method
PROPERTY: KA (µM)
Record the value in µM, omitting the unit from your answer.

Observed KA on Carbonic anhydrase 5B, mitochondrial (Homo sapiens) (UniProt Q9Y2D0) for N[C@@H](Cc1ccc(O)c(O)c1)C(=O)O , please.
0.063

What do we get for N[C@@H](Cc1c[nH]c2ccccc12)C(=O)O ?
0.89

What do we get for Nc1ccc(C[C@H](N)C(=O)O)cc1 ?
2.17

What do we get for N[C@H](Cc1c[nH]c2ccccc12)C(=O)O ?
1.35

What do we get for NCCc1ccc(O)c(O)c1 ?
7.85

What do we get for NCCN1CCOCC1 ?
1.15

What do we get for NCCc1ccccn1 ?
0.094

What do we get for NCc1ccccn1 ?
0.24

What do we get for N[C@H](Cc1ccc(O)c(O)c1)C(=O)O ?
3.71

What do we get for NCCc1c[nH]cn1 ?
3.52

What do we get for N[C@@H](Cc1ccc(O)cc1)C(=O)O ?
0.044

What do we get for N[C@H](Cc1c[nH]cn1)C(=O)O ?
4.38

What do we get for NCCN1CCNCC1 ?
0.91

What do we get for N[C@@H](Cc1c[nH]cn1)C(=O)O ?
0.97

What do we get for NCCc1c[nH]c2ccc(O)cc12 ?
0.11

----------
Assign KA to each entry below.
# STUDY_TARGET: Carbonic anhydrase 5A, mitochondrial (Homo sapiens) (UniProt P35218)
# Sequence (P35218 whole entry): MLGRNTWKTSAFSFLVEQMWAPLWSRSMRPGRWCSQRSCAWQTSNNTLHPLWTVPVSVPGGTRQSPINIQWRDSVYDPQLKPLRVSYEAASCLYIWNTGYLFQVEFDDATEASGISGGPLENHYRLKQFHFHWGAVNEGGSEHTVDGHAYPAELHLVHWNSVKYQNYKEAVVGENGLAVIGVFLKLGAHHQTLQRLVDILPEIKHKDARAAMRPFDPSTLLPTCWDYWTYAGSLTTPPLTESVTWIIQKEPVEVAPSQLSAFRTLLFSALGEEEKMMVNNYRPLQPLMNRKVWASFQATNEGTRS
# MEASUREMENT_PROTOCOL: Activation of human recombinant carbonic anhydrase 5A by stopped-flow CO2 hydrase method
Record the value in µM, omitting the unit from your answer.

Could you tell me which KA is on file for NCCN1CCOCC1 ?
0.089

What do we get for NCCN1CCNCC1 ?
6.04

What do we get for NCCc1ccccn1 ?
7.62

What do we get for N[C@@H](Cc1c[nH]c2ccccc12)C(=O)O ?
1.13

What do we get for N[C@@H](Cc1ccc(O)cc1)C(=O)O ?
2.45

What do we get for N[C@@H](Cc1ccc(O)c(O)c1)C(=O)O ?
0.036

What do we get for N[C@H](Cc1c[nH]c2ccccc12)C(=O)O ?
1.24

What do we get for NCc1ccccn1 ?
23.6

What do we get for NCCc1c[nH]c2ccc(O)cc12 ?
6.33

What do we get for N[C@H](Cc1ccc(O)c(O)c1)C(=O)O ?
4.59

What do we get for N[C@@H](Cc1c[nH]cn1)C(=O)O ?
1.34

What do we get for NCCc1c[nH]cn1 ?
0.01

What do we get for Nc1ccc(C[C@H](N)C(=O)O)cc1 ?
2.76

What do we get for N[C@H](Cc1c[nH]cn1)C(=O)O ?
0.12

What do we get for NCCc1ccc(O)c(O)c1 ?
0.13
